Molecular target: Sodium-dependent dopamine transporter (Homo sapiens)
Sequence (Q01959 whole entry): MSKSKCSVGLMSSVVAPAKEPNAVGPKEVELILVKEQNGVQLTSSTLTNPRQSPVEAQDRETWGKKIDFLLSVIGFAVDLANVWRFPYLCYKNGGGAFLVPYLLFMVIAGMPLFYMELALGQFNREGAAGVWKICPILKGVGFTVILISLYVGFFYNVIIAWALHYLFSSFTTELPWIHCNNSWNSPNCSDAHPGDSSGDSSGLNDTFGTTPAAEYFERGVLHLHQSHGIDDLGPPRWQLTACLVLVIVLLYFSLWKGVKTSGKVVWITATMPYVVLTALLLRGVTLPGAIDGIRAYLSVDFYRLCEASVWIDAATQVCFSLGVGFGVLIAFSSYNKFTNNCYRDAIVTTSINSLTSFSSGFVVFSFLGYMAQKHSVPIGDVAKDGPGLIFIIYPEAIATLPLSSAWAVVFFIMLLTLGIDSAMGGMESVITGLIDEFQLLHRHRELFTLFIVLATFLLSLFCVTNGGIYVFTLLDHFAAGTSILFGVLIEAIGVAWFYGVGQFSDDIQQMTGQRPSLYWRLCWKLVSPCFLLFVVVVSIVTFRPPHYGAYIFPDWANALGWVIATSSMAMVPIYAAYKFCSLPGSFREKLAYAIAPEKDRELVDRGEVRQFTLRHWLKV
Test: Inhibition of [3H]DA uptake at wild type human DAT expressed in African green monkey COS7 cells after 5 mins by beta scintillation counting method
Assay type: cell-based
RESULT_TYPE: Ki

Batch of 5 compounds: report Ki for each.
1. CN1C2CCC1[C@@H](c1cc(-c3ccccc3)no1)C(OC(c1ccc(F)cc1)c1ccc(F)cc1)C2 (single isomer, unassigned)
2. CN(C)CCN1C2CCC1CC(OC(c1ccc(F)cc1)c1ccc(F)cc1)C2 (stereo not given)
3. CCOC(=O)[C@@H]1C2CCC(C[C@@H]1OC(c1ccc(F)cc1)c1ccc(F)cc1)N2C[C@H](N)C(C)C (mixture of isomers)
4. CCOC(=O)[C@@H]1C2CCC(C[C@@H]1OC(c1ccc(F)cc1)c1ccc(F)cc1)N2CCc1c[nH]c2ccccc12 (mixture of isomers)
5. CN(C)CCN1C2CCC1CC(NC(c1ccc(F)cc1)c1ccc(F)cc1)C2 (stereo not given)

// result
1. 212 nM
2. 47 nM
3. 1050 nM
4. 944 nM
5. 40 nM

Where do the numbers come from? From ChEMBL document CHEMBL4024774.
